Source of measurements: the supplement of paper PMC6555819

# Test system: THRa:RXRa (NR concentration 90 nM, RXRa partner concentration 90 nM)
# MEASUREMENT_PROTOCOL: PBM binding z-score (relative to random genomic background probes); higher = stronger binding; sequences stand for … in GC…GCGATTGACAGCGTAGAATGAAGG
Reported values of PBM binding z-score for individual entries
Please reply with the value in numeric form only.

TCTTGTAGATCAAGGGTTAAGAAAGCCGAAGCCT	0.516
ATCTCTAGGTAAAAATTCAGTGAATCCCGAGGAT	0.19
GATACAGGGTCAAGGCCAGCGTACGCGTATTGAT	3.53
CGTCCAAGATCAATGCTAGGTCAGTGAAAGCATT	1.75
CCTAGCAGGCCAGGGTCACTGAAGCATTTCGCTT	3.07
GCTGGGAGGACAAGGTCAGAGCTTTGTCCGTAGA	3.31

Enquiry: Returns the measured PBM binding z-score for the input sequence. Input: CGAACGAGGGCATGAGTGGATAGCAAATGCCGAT
Return: 1.04

Enquiry: Returns the measured PBM binding z-score for the input sequence. Input: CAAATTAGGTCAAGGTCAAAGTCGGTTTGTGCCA
Return: 4.42

Enquiry: Returns the measured PBM binding z-score for the input sequence. Input: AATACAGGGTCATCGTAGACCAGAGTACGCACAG
Return: 3.67
